Every entry's value here was drawn from paper PMC2634724.

assay: Pharmacokinetics of everolimus in whole blood (LC-MS, non-compartmental); format: in vivo, human; conditions: human, whole blood, po, 30 mg, everolimus 30 mg oral alone; dose level 2; n=4; mean (s.d.)
measured_attribute: half-life
In your response, put the unit directly after the numeric value.

Lookup: Which half-life value belongs to CO[C@H]1C[C@@H]2CC[C@@H](C)[C@@](O)(O2)C(=O)C(=O)N2CCCC[C@H]2C(=O)O[C@H]([C@H](C)C[C@@H]2CC[C@@H](OCCO)[C@H](OC)C2)CC(=O)[C@H](C)/C=C(\C)[C@@H](O)[C@@H](OC)C(=O)[C@H](C)C[C@H](C)/C=C/C=C/C=C/1C [everolimus, Everolimus] ?
Found: 1610 min
